Biological target: rSigP (ECF sigma factor) (Porphyromonas gingivalis ATCC 33277) (UniProt B2RHE8)
Sequence: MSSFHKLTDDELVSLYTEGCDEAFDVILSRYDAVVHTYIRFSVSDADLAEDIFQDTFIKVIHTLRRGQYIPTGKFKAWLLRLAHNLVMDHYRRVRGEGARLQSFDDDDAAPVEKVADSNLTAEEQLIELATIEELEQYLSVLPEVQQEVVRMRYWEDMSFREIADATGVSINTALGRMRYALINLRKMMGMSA
Assay: EMSA
recorded endpoint: binding

{"columns": ["residue string", "result"],
 "data": [
  ["GCAAAGAGGATTTTTTCTTCAACGAAGAAGAGTACTGATAATGTAATCTCCTTAAGCGAATATGCCCCGGATGTGCAATAATAGCACTCGGGGCTTCGTTTTACCACCGTGGCATCAGTC (double strand) [porP promoter probe]", "binds"],
  ["ACATTATTTATATATCTGCTTCGCTGCTCTCCCCGAATCCTGCGCTAAGGCAGTTTTCAGAGGAAACGAATGCTTTTATACTTTGCATCTCTATTCTTCGTATTGCTCAATGGGAAAGAA (double strand) [porK 5'-adjacent region probe]", "no binding"],
  ["ATAATTATTGTTGTGAGGTAGGTTATGCAAATCTACGAACGAGATGTTCTAAATACCGATTCGCGCAAAAATACAATATCTTTGCTGCATAAGGCGTTGA (double strand) [porT promoter probe]", "binds"],
  ["TTAGTGACTGAAATGCGATTGCCCTGTTACAAACGGACTTGATACAACATTTTCCCTACTTTTGCGTTAGTTTCCTATAGTAATAAACAACACTATGGTG (double strand) [ruvA promoter probe]", "binds"],
  ["ATTTCGTTCGTTTTGTTTTGTATTCTTATCGGGGTCTATGAATATTCAATATCGTAAACGGCAGAACTGCTTCGGCTATTGTGCTACCACGATCATTTTCTTGGCCATGGAGGCCGTCTG (double strand) [porV promoter probe]", "binds"],
  ["GGCTATACGCAAAGCAGTCAAGTCCATTCTCTCCGAGGATTCGTCCTTAGCTGTCGAAGATATTATCAAGCGAGCATTACGAATGTTATAACCTTTTCTC (double strand) [sov 5'-adjacent region probe]", "no binding"]
]}
